Assign pKd to each entry below.
- tested_system: T1, Strep tagged recombinant human PD-1 (human, UniProt Q15116 25-170, limits assumed)
- T1 construct: the whole entry is named; also called strep tagged human PD-1; not shown: Strep tag
- T1 sequence (Q15116 25-170 limits assumed): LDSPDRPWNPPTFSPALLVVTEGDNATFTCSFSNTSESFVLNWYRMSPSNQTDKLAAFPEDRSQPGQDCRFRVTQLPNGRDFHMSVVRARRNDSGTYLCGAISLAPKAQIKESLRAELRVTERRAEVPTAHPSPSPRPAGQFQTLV
- assay_explanation: SPR Biacore T200, strep-tagged PD-1 amine-coupled, single cycle kinetics
Answers are plain numbers, as −log10 of the molar value.

1. 1.77-4GS-non-blocking VH (3) (bispecific antibody) EVQLVESGGGLVKPGGSLRLSCAASGFTFSDSSMTWMRQAPGKGLEWVSYISSGGGVKFYTDSVKGRFTISRDNAKNSLYLQMNSLRAEDTAVYYCAREAPLRLGESPHDAFDISGQGTMVTVSSGGGGSGGGGSGGGGSGGGGSEVQLVESGGGLVQPGRSLRLSCAASGFTFDDYAMHWVRQAPGKDLEWVSGISWNGGSMGYAASVKGRFTISRDNAKNSLYLQMNSLRAEDTALYYCVREKGPGLTGSTADYYGLDVWGQGTMVTVSS :: 10.20

// input: 3 binders below; output: pKd for each
1. Humabody® 1.80 (VHH, human VH single domain antibody) VHH: EVQLVESGGGLVKPGGSLRLSCAASGFTFSDSSMTWMRQAPGKGLEWVSYISSGGGVKFYADSVKGRFTISRDNAKNSLYLQMNSLRAEDTAVYYCAREAPLRLGESPHDAFDISGQGTMVTVSS
2. Humabody® 1.104 (VHH, human VH single domain antibody) VHH: EVQLVESGGGLVKPGGSLRLSCAASGFTFSDESFTWMRQAPGKGLEWVSYISSGGGVKFYTDSVKGRFTISRDNAKNSLYLQMNSLRAEDTAVYYCAREAPLRLGESPHDAFDISGQGTMVTVSS
3. 1.57-6GS-1.57 (other, bivalent construct of two VH domains in one chain) QVQLVESGGGLVKPGGSLRLSCAASGFTFSDNSMTWMRQAPGKGLEWVSYISSGGGVIFYADSVKGRFTISRDNAKNSLYLQMNSLRADDTAVYYCAREAPLRLGESPHDAFDISGQGTMVTVSSGGGGSGGGGSGGGGSGGGGSGGGGSGGGGSQVQLVESGGGLVKPGGSLRLSCAASGFTFSDNSMTWMRQAPGKGLEWVSYISSGGGVIFYADSVKGRFTISRDNAKNSLYLQMNSLRADDTAVYYCAREAPLRLGESPHDAFDISGQGTMVTVSS

10.53
10.10
10.77
